Every entry's value here was drawn from paper PMC6660996.

- System: T. cruzi (amastigotes)
- assay_remarks: T. cruzi amastigote assays
- Type: cell-based
- measurement_setup: Trypanosoma cruzi, read-out: T. cruzi cells ED50
pIC50: −log10 of the molar value.

# substance_smiles, pIC50
data = [
    ("CCCNC(P(=O)(O)O)P(=O)(O)O", "< 5.00"),
    ("CCCCNC(P(=O)(O)O)P(=O)(O)O", "< 5.00"),
]
